- test.description: doxorubicin toxicity protection in MRP-1 cells – H69AR cells, CellTiter-Glo, duplicate, MRP-1 activator project, pilot screen (AID 807);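 further: compound pretreatment 18-22 h then 72 h combined with doxorubicin; 0% = doxorubicin alone and 100% = vehicle without doxorubicin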
- measurement.conditions: H69AR viability with doxorubicin, CellTiter-Glo luminescence; at 10 µM; stronger effect = higher value
Calls of active or inactive are those of the source.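 How the source made its calls: active means viability increase at or above a cutoff of the median across tested compounds plus 3 SD (cut at about 8.5% in these data, passing the limit was not always enough); inconclusive means some gains above the cutoff, reason not given; inactive means the rest.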
recorded.metric: viability increase

Prompt: Would you mind telling me what viability increase value was observed for Nc1nc2n(n1)C(c1cccc(Br)c1)CC(c1ccccc1)N2 (stereo unspecified) ?
Response: -1.81% (inactive)

Prompt: Can you handle CS(=O)(=O)c1ccc(N)cc1 next?
Response: -2.37% (inactive)

Prompt: What do you get for COc1ccc(N(CC(=O)NC2CCCCCCC2)S(=O)(=O)c2c(C)nn(C)c2C)cc1 ?
Response: -2.87% (inactive)

Prompt: Param item: Cn1c(/C=N/n2cnnc2)nc2ccccc21
Response: -3.76% (inactive)

Prompt: Same lookup for Cc1ccc(-c2nc(CS(=O)CC(=O)NCc3ccccn3)c(C)o2)cc1 (stereo unspecified) , please.
Response: -1.49% (inactive)

Prompt: Continue with Cn1c(NC(=O)C2CCCC2)cc(=O)n(C)c1=O
Response: -0.06% (inactive)

Prompt: Next entry: CC1(C)Oc2ccc3ccc(=O)oc3c2C(N2CCCCC2)C1O (stereo unspecified)
Response: -2.43% (inactive)

Prompt: Same read-out for CSc1ccccc1NC(=O)C1CCCO1 (stereo unspecified) ?
Response: -2.61% (inactive)

Prompt: Same read-out for CCn1c(=O)c2cc(C(=O)Nc3cc(C)on3)sc2c2ccccc21 ?
Response: -6.36% (inactive)

Prompt: // query: CCOc1ccc(N=C2NC(=O)C(CC(=O)O)S2)cc1 (stereo unspecified)
Response: -0.06% (inactive)

Prompt: Also check COCCCNC(=O)Cn1cc2c(n1)CCC(C)C2 (stereo unspecified)
Response: 0.05% (inactive)

====

Assign viability to each entry below.
- test.description: MRP1 drug-resistance reversers in H69AR cells – cell-based, doxorubicin co-treatment, pilot screen (AID 601)
- measurement.conditions: H69AR cells + 2 uM doxorubicin, CellTiter-Glo, 72 h; measured here: viability with 2 uM doxorubicin; at 10 µM; stronger effect = lower value
Unit % implied. Number only.

Prompt: I'd like to know its viability. The molecule in question is CCc1nc2sc(C)c(C)c2c(=O)n1CCO
Response: 90.6

Prompt: Would you mind doing O=C(c1ccco1)N1CCN(C(=O)C2CC(c3ccc(F)cc3)=NO2)CC1 (centres undefined) as well?
Response: 87.8

Prompt: Query Cc1cccc(NC(=O)c2ccccc2O)c1C next
Response: 88.4

Prompt: Also CCOC(=O)N1CCC(NC(=O)Cn2c3c(c(-c4ccccc4Cl)cc2=O)CCC3)CC1 , if possible.
Response: 89.6

====

- test.description: S. cerevisiae growth inhibition in restrictive medium, OD615, pilot screen, restrictive growth control, yeast lifespan reduction project (AID 706);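 further: modified DeaD lifespan yeast strain shifted to restrictive glucose medium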
- measurement.conditions: OD615, 48 h, at 10 µM, stronger effect = higher value
recorded.metric: growth inhibition (%)
State just the number; it will be interpreted in %.

Prompt: Need growth inhibition of CCOC(=O)N1CCN(c2cc(=O)n(-c3cccc(Br)c3)c(=O)[nH]2)CC1 , thanks.
Response: -24.3

Prompt: Same question for COc1cccc(-c2cc(C(F)(F)F)nc(NCc3ccco3)n2)c1 please.
Response: 18

Prompt: Record: COc1cccc(-c2nc3cc(C)ccc3o2)c1
Response: 0.415

====

- test.description: Her2 expression decrease, cell viability multiplex – SKBR3 breast tumor cells, AlphaScreen, ATP viability, primary screen (AID 461);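 further: percent of carrier control wells set as 100% viability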
- measurement.conditions: SKBR3 Her2 protein level, 18-24 h, measured here: SKBR3 viability, ATP luminescence, at 10 µM
recorded.metric: viability (%)
State just the number; it will be interpreted in %.

Prompt: So what's the measured viability for this one? CCN1C(=O)c2ccccc2S(=O)(=O)c2ccc(C(=O)NCc3cccnc3)cc21
Response: 95.5

Prompt: And for O=C(CCS(=O)(=O)c1cccc2nsnc12)NCc1ccccc1 ?
Response: 93.5

Prompt: Try this molecule too: CCOC(=O)C1=C(C)NC(=O)NC1c1ccc(Br)s1 (stereo not given)
Response: 119

Prompt: // next record CCOC(=O)C1=C(C)Nc2nnnn2C1c1ccc(OC)c(Br)c1 (stereo not given)
Response: 106

Prompt: And for COc1ccc(S(=O)(=O)N2Cc3ccccc3CC2C(=O)Nc2ccc(O)cc2)cc1OC (stereo not given) ?
Response: 91

Prompt: Next molecule up: O=C(NCCN1CCOCC1)c1ccc2c(c1)N(Cc1ccccc1F)C(=O)CS2
Response: 94

Prompt: Next molecule: Cc1c(C(=O)OCCOC(C)C)[nH]c2c1C(=O)CC(c1ccco1)C2 (stereo not given)
Response: 81

Prompt: Consider next the molecule COC(=O)C1(C(F)(F)F)N=C2Sc3ccccc3N2C(N2CCOCC2)=N1 (stereo not given) in the same way.
Response: 91

Prompt: // next record COc1cccc(N(C(C)=O)c2nc(C)cc(C)c2C#N)c1
Response: 102

Prompt: Repeat with C=CCOc1ccc(/C(CC)=N/O)c(OC)c1
Response: 93.5

====

- test.description: RAM signaling pathway blockade in yeast – S. cerevisiae, Pdr1DBD-CYC8 efflux-inhibited sensitized strain, primary screen (AID 1298);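 further: 0% = DMSO untreated cells without growth and 100% = 10 µM 1-NA-PP1 full growth; higher means more yeast growth rescued from 5-FOA killing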
- measurement.conditions: S. cerevisiae cbk1-as DSE1-URA3 strain, 5-FOA growth OD615, 2 d; at 50 µM; stronger effect = higher value
The source made the active and inactive calls.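 The calls were made as follows: active = RAM network inhibition above 8.4% in each of two replicates, 3 SD over the compound average; inconclusive = above 8.4% inhibition in only one replicate; inactive = 8.4% inhibition or less in each replicate.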
I'd appreciate it if you could supply RAM network inhibition values for the items below.

Prompt: Sample CC(C)C(C(=O)Nc1ccc2c(c1)OCCO2)N1C(=O)c2ccccc2C1=O (stereo not given) — what was its RAM network inhibition?
Response: 2.58% (inactive)

Prompt: // same read-out, input: CCOC(=O)C1CCN(Cc2ccc(F)c(Br)c2)CC1
Response: -0.36% (inactive)

Prompt: Also COCCOC(=O)C1=C(C)OC(N)=C(C#N)C1c1ccc2c(c1)OCO2 (stereo not given) ?
Response: 3.07% (inactive)

Prompt: # iterate: COc1ccc(CCn2c(N)c(S(=O)(=O)c3cccs3)c3nc4ccccc4nc32)cc1OC
Response: 8.59% (inactive)

Prompt: Record: CC(C)C(NC(=O)CN1C(=O)c2ccccc2S1(=O)=O)C(C)C
Response: -1.56% (inactive)

Prompt: Another: COc1ccccc1NC(=O)N1CCN(c2ccc3nncn3n2)CC1
Response: 0.69% (inactive)

Prompt: And the next one, CN(C)C(C(=O)NC1CCCCC1)c1ccc(Cl)cc1 (stereo not given) ?
Response: -0.68% (inactive)

Prompt: Next: CCc1cc2c(=O)c(-c3nc4ccccc4[nH]3)coc2c(CN2CCC(C)CC2)c1O
Response: -2.41% (inactive)

Prompt: Would you mind doing O=C(Cn1ncc2c(=O)oc3ccccc3c21)NCCCN1CCCC1=O as well?
Response: 3.58% (inactive)

Prompt: Then CCOC(=O)C(C)(C)Sc1nc2c(cnn2-c2ccc(Cl)cc2)c(=O)[nH]1 ?
Response: 6.14% (inactive)

====

- test.description: RAM pathway blockade in budding yeast – dse1pr::URA3 reporter, 5-FOA selection, pilot screen (AID 869);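 further: 0% = DMSO wells with no growth and 100% = 10 µM 1-NA-PP1 with full growth; RAM network block rescues cells from 5-FOA so hits raise OD615 growth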
- measurement.conditions: S. cerevisiae dse1pr::URA3 5-FOA growth, OD615, 2 d; at 10 µM; stronger effect = higher value; strain carries analog-sensitive mutant Cbk1 kinase
So I've got a bunch of molecules here, and I need their inhibition values.
Your answer should be a plain number; it is taken to be in %.

Prompt: Data request, read-out inhibition, for Cn1c(C(=O)N2CCN(c3ccc(Cl)cc3)CC2)cc2c(=O)n(C)c3ccccc3c21
Response: 2.57

Prompt: COc1cc(NC(=O)C2CCCN2S(=O)(=O)c2cccc3cccnc23)cc(OC)c1OC (configuration not stated) , same question.
Response: 0.905

Prompt: Same question, CC(Sc1nnc(Cn2c(=O)sc3ccccc32)n1C)c1ccccc1 (configuration not stated) this time
Response: 1.69

Prompt: Next molecule: O=C(CCn1[nH]c(=O)c2ccccc2c1=O)NCCO
Response: 0.26

Prompt: Same question for Cc1ccc(C)c(N2CCN(CCCNC(=O)Cn3cc4c(n3)CCCCC4)CC2)c1 please.
Response: 0.495

Prompt: Field entry: CC(C)C(C(=O)Nc1ccc2c(c1)OCCO2)N1C(=O)c2ccccc2C1=O (configuration not stated)
Response: 1.34

Prompt: Okay, and COc1ccc(N2CCN(C(=O)c3c(-c4ccccc4)noc3C)CC2)cc1 ?
Response: 0.795

====

- test.description: Her2 expression decrease, cell viability multiplex – SKBR3 breast tumor cells, AlphaScreen, ATP viability, primary screen (AID 461);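 further: percent of carrier control wells set as 100% viability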
- measurement.conditions: SKBR3 Her2 protein level, 18-24 h, measured here: SKBR3 viability, ATP luminescence, at 10 µM
Hi there, I'd appreciate the recorded viability for every entry that follows.
Dear colleague, please return just the value in %, with no unit written.

Prompt: Reported viability for Cc1ccc(C)c(N2CCN(C(=O)c3cc4ccccn4n3)CC2)c1 : what is it?
Response: 91

Prompt: And then Cc1c(C(=O)OCc2ccccc2)[nH]c2c1C(=O)CC(c1ccco1)C2 (stereo not given) , what is it?
Response: 86.5

Prompt: Next compound up: COc1ccc(NC(=O)CSc2nnc(Cc3cccn3C)n2-c2ccc(F)cc2)cc1OC
Response: 86

Prompt: Proceed to Cn1c(Cc2ccccc2)nnc1SCC(=O)NC1CCCCC1
Response: 107

Prompt: Same thing, different compound: COc1cccc(C2CC(c3c(Cl)cccc3Cl)n3nc(N)nc3N2)c1 (stereo not given)
Response: 97

Prompt: Same question, Cc1cccc(N2CCN(C(=O)Cn3nc(Cc4ccncc4)c4ccccc4c3=O)CC2)c1C this time
Response: 83

Prompt: Then what about the compound NC(=O)CN1C(=O)C(O)(CC(=O)c2ccccc2O)c2ccccc21 (stereo not given) ?
Response: 92.5

Prompt: Check COc1cccc(-c2nc(CS(=O)(=O)CC(=O)Nc3cc(C)ccc3C)c(C)o2)c1 too.
Response: 76

Prompt: Entry to check: Cc1cccc(-n2nc3c(c2NC(=O)CCC2CCCCC2)CS(=O)C3)c1C (stereo not given)
Response: 95

Prompt: Try this compound too: Cc1cccc(C2CC(c3ccc(Cl)cc3)Nc3nc(N)nn32)c1 (stereo not given)
Response: 91

Prompt: Thanks! And Cc1c(NC(=O)c2ccc(Br)o2)c(=O)n(-c2ccccc2)n1C ?
Response: 91

Prompt: Okay, and CCCn1c(OC)nc2c1c(=O)n(C)c(=O)n2C ?
Response: 89.5

Prompt: Further, for Cc1ccc(-c2noc(CN3C(C)CCCC3C)n2)cc1 (stereo not given) ?
Response: 93.5

Prompt: Now give it for CC1Cc2ccccc2N1C(=O)C12CCC(C)(C(=O)C1)C2(C)C (stereo not given) too.
Response: 136

Prompt: Repeat with CC(C)(C)SCCNC(=O)CN1C(=O)c2ccccc2S1(=O)=O
Response: 97

The measured values listed here are drawn from PubChem BioAssay.
